Measured values drawn from patent US20230219965A1 for this set.

assay: Liver microsomal metabolic stability, rat liver microsomes (RLM); details: rat, liver microsomes, t1/2 (min) in RLM, 1 μM compound, 1 mg/mL microsomes, NADPH
A collection of compounds and their measured half-life at 1 μM

CCn1cc(C(F)(F)F)nc1-c1ccc([C@@H](C)N2C(=O)CCn3nc(-c4c(OC)ncnc4C4CC4)nc32)cc1 : < 25 min
COc1c(CN2C(=O)CCn3nc(-c4c(OC(F)F)ncnc4C4CC4)nc32)ccc(-c2nc(C(F)(F)F)cn2C(C)C)c1F : > 25 min
CCn1cc(C(F)(F)F)nc1-c1ccc(NC2c3cc(-c4c(Cl)cnn4C(C)C)nn3CCC2(C)C)cc1 (centres unmarked) : < 25 min
CCn1cc(C(F)(F)F)nc1-c1ccc(C(C)N2CCCn3nc(-c4c(Cl)cnn4C(C)C)cc32)cc1 (centres unmarked) : < 25 min
COc1ncnc(C2CC2)c1-c1cc2n(n1)CCC(=O)N2Cc1ccc(-c2nc(C(F)(F)F)cn2C)c(F)c1 : > 25 min

[ask] Look up and report measured half-life at 1 μM for this entry: COc1ncnc(C2CC2)c1-c1nc2n(n1)CCC(=O)N2Cc1ccc(-c2nc(C(F)(F)F)cn2C(C)C)c(F)c1OC
[reply] > 25 min

[ask] For COc1cc(C(F)(F)F)nn1-c1ccc(CN2C(=O)CCn3nc(-c4c(Cl)cnn4C(C)C)cc32)cc1F , write its half-life at 1 μM.
[reply] > 25 min

[ask] Give half-life at 1 μM for the following compound: COc1ncnc(C2CC2)c1-c1nc2n(n1)CCC(=O)N2[C@H](C)c1ccc(-c2nc(C(F)(F)F)c(Br)n2C)cc1
[reply] > 25 min
